- system_name: T1, UNK ZnF1-3 (human, UniProt Q9C0B0 31-174)
- T1 sequence: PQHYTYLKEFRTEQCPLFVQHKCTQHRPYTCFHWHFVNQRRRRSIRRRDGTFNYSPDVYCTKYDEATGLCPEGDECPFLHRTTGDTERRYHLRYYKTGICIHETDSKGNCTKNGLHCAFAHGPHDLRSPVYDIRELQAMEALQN
- measurement_notes: nsRBNS (natural sequence RNA bind-n-seq); RBNS binding buffer (assumed for nsRBNS): 25 mM Tris pH 7.5, 150 mM KCl, 3 mM MgCl2, 0.01% Triton X-100, 500 ug/ml BSA, 20 U/ml SUPERase-In, 4 C; UNK is unkempt and MSI1 is Musashi-1; names of the RNAs are library labels; protein concentration not given here; high values mean tight binding
Whole data set: some 24,000 sequences, median “enrichment r” near 0.99, cut for the highest 2% near 3.7. The entries come from a sample that favours the highest values as a whole.
Measured binding signal, listed per entry.

# binder, binding signal [enrichment R]
records = [
    ("chr3:142455422:142455423:-_ENSMUSG00000004591_ENSMUST00000043812|mus_hu|FALSE|FALSE (ssRNA) RNA: GGGAGUUCUACAGUCCGACGAUCGAAAAAACAAUAAAGUCAUAGAUUAGGAGAAAAAAAUAUAAAAUCAAACCAAACCAAAACAAACAAAAAACUACAGGCAAGUGGAAAGUCAUGGUUUGUAAAAAGACAACCCUAAAAGAGCAACAGAGGAUUGAGCAUCA", 3.8),
    ("54532081_54532201_669_3pUTR_ENSMUSG00000073678_ENSMUST00000097739|mouse|control|control (ssRNA) RNA: GGGAGUUCUACAGUCCGACGAUCGACUGAGCAGAGACAUAAAGAAAGCAAAAGAAACACCACAGGGAAGGUUUCAACUGUAGUAACCAGACAUCUACACCAAAAAUGGAUUGUGCAAAACAACUGAUUUUUUUUUUUUUUUUACAACAGAGGAUUGAGCAUCA", 4.75),
    ("110765750_110770449_1192_CDS_ENSG00000174437_ENST00000539276|human|control|control (ssRNA) RNA: GGGAGUUCUACAGUCCGACGAUCCUCAUUAAGGGAACAAGUAUCACCUUCCACUCUGUCCAGAAUGAACAUCCUGCAGACUGACAUCUGGUUUGUUGUAAGUGUACCAGUCUUGUCUGAGCAGAUAACAGAAGUACAACCAAGCAACAGAGGAUUGAGCAUCA", 0.886),
    ("chr5:56189439:56189440:+_ENSG00000095015_ENST00000399503|hu_hu|FALSE|FALSE (ssRNA) RNA: GGGAGUUCUACAGUCCGACGAUCAAAGACUGGAUGCUUCAGUAGCUCUCUUGAUGGAGGUCUGUCCUGAGGUUGAAGUUCUAAACAACGAAGAGCCACAUCUCGUAAACCAGGAGACAAAUGUGAAGGGAUCGAUGGAGCAGUCAACAGAGGAUUGAGCAUCA", 1.08),
    ("chr12:73045124:73045125:+_ENSMUSG00000034574_ENSMUST00000085299|mus_mus|FALSE|FALSE (ssRNA) RNA: GGGAGUUCUACAGUCCGACGAUCGCCUUGAGAGUUGUUCAUUAGUGCCUUUAUACAGCCAAUGAGGGAGGUGUGUAUCCGAGACUCAGAGGUCUCAUAGUCCAUGGUCUUCAGAAAGUUGAGAAUACAUGACAGGCCAUCCAACAACAGAGGAUUGAGCAUCA", 0.851),
    ("2840810_2840930_7205_3pUTR_ENSG00000087266_ENST00000503393|human|control|control (ssRNA) RNA: GGGAGUUCUACAGUCCGACGAUCUGAGACCCUGUCUCAGAAAAAAAAAAAAAGAAAAGAAAAAGAAAAAGACAACAAGUUAAAAAAUGGGCAAAAGAUGAUAGACACUUCACAGGAGACAAAAUCAAAAUGGUUAAUAAAAACCAACAGAGGAUUGAGCAUCA", 8.04),
    ("chr14:52780626:52780627:-_ENSMUSG00000035726_ENSMUST00000046709|mus_mus|FALSE|FALSE (ssRNA) RNA: GGGAGUUCUACAGUCCGACGAUCUGAGCACUGCACCACAUAUGGACUUGUAAGGAGGAAAAAAAAAAAAAAAAAAAAAAAAAAAACAGCCACGAGUGCCAGUGUUUGUCUUCUGAUGCAGCAAAAACAACCCCAGAAUGUGCACAACAGAGGAUUGAGCAUCA", 12.8),
]
